Where these numbers come from: PubChem BioAssay (NCI)

# Tested on: OVCAR-3 ovarian
# Assay Comment: NCI tumour cell line growth inhibition, 48 h; in the data active means GI50 below about 0.43 µM; inactive means the rest
Where a SMILES comes first, the peptide text is derived from it. [ ]: non-standard residue; d: D form. The star is where a group is joined. ξ: configuration not given here. X16 = COC1=CC(=O)N(C(=O)C(O*)C(C)C)C1Cc1ccccc1; ξNMe2Val = CC(C)C(C(=O)*)N(C)C; NMeV = CN[CH](C(=O)O)C(C)C
Outcomes: active, inactive

INSERT INTO results (compound, group_label) VALUES
  ('CCCC[C@@H]1NC(=O)[C@H](CCCCN)NC(=O)[C@H](CCCNC(=N)N)NC(=O)[C@H](CC(C)C)NC(=O)[C@@H](NC(=O)[C@H](Cc2cccc(Cl)c2)NC(=O)[C@@H]2CCCN2C(=O)[C@@H](NC(C)=O)C(C)C)CCSSC[C@@H](C(=O)N[C@@H](CCCCN)C(=O)N2CCC[C@H]2C(=O)N2CCC[C@H]2C(=O)N[C@@H](CCC(=O)O)C(N)=O)NC(=O)[C@H](Cc2ccccc2)NC(=O)[C@H](CO)NC(=O)[C@H](C)NC(=O)[C@@H]2CCCN2C1=O', 'inactive'),
  ('C[C@]12CC[C@H](O)CC1=CC[C@@H]1[C@@H]2CC[C@]2(C)C(=O)/C(=C/c3cccc(OCCCn4ccnc4)c3)C[C@@H]12', 'inactive'),
  ('O=C(Cn1ccnc1[N+](=O)[O-])N(CCO)CCO', 'inactive'),
  ('COC1=CC(=O)N(C(=O)C(OC(=O)C2CCCN2C(=O)C2CCCN2C(=O)C(C(C)C)N(C)C(=O)C(NC(=O)C(C(C)C)N(C)C)C(C)C)C(C)C)C1Cc1ccccc1 (stereo not drawn) (ξNMe2Val-V[NMeV]PP-X16; configuration not given here)', 'active'),
  ('O=C1OCC(c2ccc(O)c(O)c2)=C1c1cc(O)c(O)c(O)c1', 'inactive'),
  ('Cc1ccc(S(=O)(=O)N(C)C)cc1[N+](=O)[O-]', 'inactive'),
  ('COc1ccc(-c2cc3c4c(nc5ccccc5c4c2)CC(c2cc(OC)c(OC)c(OC)c2)O3)cc1 (stereo not drawn)', 'inactive'),
  ('O=C1Nc2ccc(F)c3c(OCCO)cc(-c4ccc[nH]4)c1c23', 'inactive');

---

# Test system: SNB-19 CNS
# Assay Comment: NCI tumour cell line growth inhibition, 48 h
The threshold is inclusive: TGI of exactly 20 µM counts as YES; values below receive NO.

INSERT INTO measurements (structure_notation, group_label) VALUES
  ('C[C@]12CC[C@H](O)CC1=CC[C@@H]1[C@@H]2CC[C@]2(C)C(=O)/C(=C/c3cccc(OCCCn4ccnc4)c3)C[C@@H]12', 'YES'),
  ('COc1ccc2c(c1)O/C(=C\c1cccc(OCC(=O)Nc3nc4ccccc4s3)c1)C2=O', 'YES'),
  ('CS(=O)(=O)c1nccc(-c2c(-c3cccc(OCc4ccc(F)cc4)c3)nc3sccn23)n1', 'YES'),
  ('CN1CC(c2ccccc2)=Cc2c1ccc(N)c2N=N', 'YES'),
  ('O=CC1=CCCC2(C1)OCCO2', 'YES'),
  ('C/C(=N\Nc1nc2cc(C)ccc2s1)c1ccccn1', 'YES'),
  ('O=C(NCc1cn(Cc2cccc(Oc3ccccc3)c2)nn1)c1cccnc1Nc1ccccc1', 'YES'),
  ('CCOC(=O)c1cc2cc(Cc3ccc4[nH]c(C(=O)OCC)cc4c3)ccc2[nH]1', 'YES'),
  ('Oc1ccc(-c2cc(-c3c(O)cc(O)cc3O)on2)cc1', 'YES'),
  ('COc1ccc(CNc2cc(OC)cc(OC)c2)cc1', 'YES'),
  ('COC(=O)Cc1c([C@@H]2Nc3ccccc3[C@H]2CC(=O)OC)[nH]c2ccccc12', 'YES'),
  ('COc1ccccc1-c1cc2c3c(nc4ccccc42)C(=O)c2cccnc2-c3n1', 'YES'),
  ('Brc1c[n+](Cc2ccc3ccccc3c2)cn1Cc1ccc2ccccc2c1', 'NO'),
  ('CC1(C)CCC(S(=O)(=O)c2ccc3c(c2)/C(=N\O)c2cc(S(=O)(=O)N4CCC(O)(c5cccc(C(F)(F)F)c5)CC4)ccc2-3)CC1', 'NO'),
  ('O=C(CC12CC3CC(CC(C3)C1)C2)NCCOCCOCCNC(=O)c1cc2c(o1)C(=O)c1ccccc1C2=O', 'NO'),
  ('COc1ccc(/C=C2/CN(C(=O)c3ccccc3F)C/C(=C\c3ccc(OC)cc3)C2=O)cc1', 'YES'),
  ('O=C(NNc1nc2cc(F)ccc2n2c(CN3CCOCC3)ccc12)c1ccccc1', 'NO'),
  ('Nc1c(Br)cc(-c2cc(Br)c(N)c(Br)c2)cc1Br', 'YES'),
  ('O=C(NC1CCCCC1)c1c(O)[nH]c(=S)[nH]c1=O', 'YES'),
  ('CO/N=C(\c1ccccc1)c1cnn(-c2ccccc2)c1N', 'YES');
